So I've got Ki readings for Mu-type opioid receptor (Rattus norvegicus, UniProt P33535), take a look.
Observable: Ki (µM)

Study these solved cases before continuing.
> print(dat)
                                   compound                               test.system  units.symbol  number
1  Cc1cccc2nc(/C=C/c3ccc(Cl)cc3)nc(NCCCCCCN)c12  Mu-type opioid receptor (Rattus norvegicus, UniProt P33535)            µM    0.17
2  Cc1ccc2nc(/C=C/c3ccc(Cl)cc3)nc(N[C@H]3CC[C@@H](NC(=N)N)CC3)c2c1  Mu-type opioid receptor (Rattus norvegicus, UniProt P33535)            µM    0.06
3  Cc1ccc2nc(/C=C/c3ccc(Cl)cc3)nc(NCCN)c2c1  Mu-type opioid receptor (Rattus norvegicus, UniProt P33535)            µM    0.24
4  NCCCCCCNc1nc(/C=C/c2ccc(Cl)cc2)nc2ccc(Cl)cc12  Mu-type opioid receptor (Rattus norvegicus, UniProt P33535)            µM    0.38

I = Cc1ccc2nc(/C=C/c3ccc(Cl)cc3)nc(NCCCCN)c2c1
II = Cc1ccc2nc(/C=C/c3ccc(Cl)cc3)nc(N[C@H]3CC[C@@H](N)CC3)c2c1
Query: Please indicate which item has the smaller measured Ki: I versus II Bench note: the answer is the label of the chosen record.
Response: I
